- Tested on: SW-620 colon
- PROTOCOL TEXT: NCI-60 one-dose screen, 48 h
- MEASUREMENT CONDITIONS: 10 µM unless noted
The panel holds about 83,000 compounds, 20% with a hit somewhere; the sample as a whole holds those more often. Activity calls are given as the source filed them. The calls were made as follows: active = growth percent below 10; inactive = the rest.
Outcomes: active, inactive

> print(dat)
                                   molecule  class.label
1  COc1ccc2c(c1)c(-c1nc(-c3c[nH]c4ncccc34)cs1)cn2CCN     inactive
2  CCOC(=O)c1ccc2c(c1)[n+](=O)c(C(=O)C1CCCS1)c(C(F)(F)F)n2[O-] (stereo not given)       active
3   NC1=NN(c2ccccc2)C(=O)/C1=C/c1ccc(Cl)cc1     inactive
4  NCCn1cc(-c2nc(-c3c[nH]c4ncccc34)cs2)c2cc(Br)ccc21       active
5  O=C(CCCCCn1c2ccccc2c2c3c(c4c5ccccc5[nH]c4c21)C(=O)N(O)C3=O)N1CCOCC1     inactive

* * *

- Test system: MDA-MB-435 melanoma
- PROTOCOL TEXT: NCI-60 one-dose screen, 48 h (100 = growth as untreated, 0 = no growth, -100 = all killed)
- MEASUREMENT CONDITIONS: 10 µM unless noted
The panel holds about 83,000 compounds, 20% with a hit somewhere; the sample as a whole holds those more often.
growth listing for selected compounds.
REPORTED ENDPOINT: growth (%)

> print(dat)
                                   compound         assay.target  reported.endpoint  value.unit  reported.value
1  CCOC(=O)N1CCN(CCCCOc2ccc(C(C)(C)CC)cc2)CC1  MDA-MB-435 melanoma             growth           %             105
2    Fc1cccc(-c2[nH]nc3nc(Nc4cccnc4)sc23)c1  MDA-MB-435 melanoma             growth           %            -8.7
3   O=C1/C(=C\c2ccco2)SC(=S)N1CCc1ccc(O)cc1  MDA-MB-435 melanoma             growth           %            93.7
4  N#CC1=C(N)Oc2c(c(N)nn2-c2ccccc2)C1c1ccc(Cl)cc1Cl (stereo not drawn)  MDA-MB-435 melanoma             growth           %             103
5  CCCCCC1CCCCN1C(=O)OCC (stereo not drawn)  MDA-MB-435 melanoma             growth           %             115
6       CCCCCCCCNc1cccc2c1C(=O)c1ccccc1C2=O  MDA-MB-435 melanoma             growth           %             105
7  CCOC(=O)C1OC1(c1ccccc1)c1ccccc1 (stereo not drawn)  MDA-MB-435 melanoma             growth           %             104
8  CCN1CCN(C(=O)[C@@]2(C)CC[C@]3(C)CC[C@]4(C)C(=CC(=O)[C@@H]5[C@@]6(C)CC[C@H](OCCC#N)C(C)(C)[C@@H]6CC[C@]54C)[C@@H]3C2)CC1  MDA-MB-435 melanoma             growth           %            81.5

* * *

- System: A549/ATCC NSCLC
- PROTOCOL TEXT: NCI-60 one-dose screen, 48 h (100 = growth as untreated, 0 = no growth, -100 = all killed)
- MEASUREMENT CONDITIONS: 10 µM unless noted
This is part of a sample that, as a whole, favours compounds with a hit. Of some 83,000 tested, about 20% had one in any assay.
REPORTED ENDPOINT: growth (%)

> print(dat)
                                   molecule  reported.value
1  CN(CSc1ccc(Cl)cc1)c1ccc(CSc2ccc(Cl)cc2)cc1            50.5
2   Cc1cc2nc3c4cc(N)ccc4n(CCN(C)C)c3nc2cc1C            5.34
3  COc1ccc(C2NC(=O)Nc3ccccc32)c(OC)c1 (stereo not drawn)            98.4

* * *

- Tested on: OVCAR-3 ovarian
- PROTOCOL TEXT: NCI-60 one-dose screen, 48 h (100 = growth as untreated, 0 = no growth, -100 = all killed)
- MEASUREMENT CONDITIONS: 10 µM unless noted
About 83,000 compounds went through this panel and 20% of them were active in at least one assay; those are over-represented in the sample as a whole.
Reported growth values for the following compounds.

COMPOUND	growth (%)
CC(C)C[C@@H](NC(=O)[C@@H](Cc1ccccc1)NC(=O)c1cnccn1)B1O[C@H]2[C@H](O)[C@@H](C(=O)NCCCC[C@@H]3NC(=O)[C@@H](Cc4ccccc4)NC(=O)[C@H](CC(=O)O)NC(=O)CNC(=O)[C@H](CCCN=C(N)N)NC3=O)O[C@@H](CN)[C@H]2O1	-55.3
CC(=O)OCCCCCCn1c2ccccc2c2c3c(c4c5ccccc5n(C)c4c21)C(=O)N(O)C3=O	77.2
Cc1ccc(C)c2c1CCC2C(C)C (centres undefined)	104
COc1ccc(/C=C/C(=O)NCCO)cc1	101
c1ccc(CN2C(c3ccccc3)=Nc3ccccc3C2c2c[nH]c3ccccc23)cc1 (centres undefined)	57.6
N#Cc1cnc2cc(OC[C@@H](O)CO)c(NC(=O)C3CCCC3)cc2c1Nc1ccc(OCc2cccc(F)c2)c(Cl)c1	-82
COc1cc2c(cc1OC)C(=O)/C(=C/c1cc(-c3ccc4c(c3)OCO4)n[nH]1)C2	-50.4
CCCCn1c(-c2ccc(O)cc2)cn2c3c(=O)[nH]c(=O)n(C)c3nc12	89.8
O=[N+]([O-])c1cc(S(=O)(=O)c2ccc(F)c([N+](=O)[O-])c2)ccc1F	101
NC(Cc1ccc(O)cc1)C(=O)N/N=C/c1ccccc1O (centres undefined)	103
COc1cc(NC(C)CN(CC(C)C)C(C)C)c2ncccc2c1 (centres undefined)	92.9
CC(=O)O[C@H]1CC[C@]2(C)[C@H]3C(=O)C=C4[C@@H]5C[C@](C)(C(=O)N6CCCNCC6)CC[C@]5(C)CC[C@@]4(C)[C@]3(C)CC[C@H]2C1(C)C	-86.4
C=C1C(=O)O[C@H]2[C@H]1CC/C(COC(=O)NCc1c[nH]c3ccccc13)=C\CC[C@@]1(C)O[C@@H]21	2.08
N=c1ccc2nc3c(cc(N)c4ccccc43)oc-2c1	-90.1
CN(C)c1ccc(-c2ccc(-c3ccc(C(=N)N)c(F)c3)s2)cc1	-88.2
CC(C)(C)c1nc(-c2ccc(O)c(O)c2)cs1	61.2
C=C1C(=O)O[C@H]2[C@H]1CC/C(COC(=O)NCCc1c[nH]c3ccccc13)=C\CC[C@@]1(C)O[C@@H]21	-65.6
c1cnc2[nH]cc(-c3csc(-c4cn(CCCN5CCCCC5)c5ccccc45)n3)c2c1	60.4
Nc1c2c(nc3ccc(Br)cc13)CC(c1ccccc1)CC2=O (centres undefined)	14.7
COc1cccc(-c2nn(-c3ccccc3)cc2-c2ccnc(NCCCNS(=O)(=O)c3ccc(Br)cc3)c2)c1	58.8
CN(C)c1ccc(N=C2C=CC(=O)C=C2)cc1	-14.8
N#Cc1cnc2cc(OC[C@@H](O)CO)c(NC(=O)CC3CSSC3)cc2c1Nc1ccc(OCc2cccc(F)c2)c(Cl)c1	-81.3
O=[N+]([O-])c1ccc(N/N=C(\C(=N/Nc2ccc([N+](=O)[O-])cc2[N+](=O)[O-])c2ccccc2)c2ccccc2)c([N+](=O)[O-])c1	84
O=C1c2cccc3cccc(c23)C(=O)N1CC#Cc1ccc2c3c(cccc13)C(=O)N(CCO)C2=O	87

* * *

- Tested on: IGROV1 ovarian
- PROTOCOL TEXT: NCI-60 one-dose screen, 48 h (100 = growth as untreated, 0 = no growth, -100 = all killed)
- MEASUREMENT CONDITIONS: 10 µM unless noted
The panel holds about 83,000 compounds, 20% with a hit somewhere; the sample as a whole holds those more often.
// boundary case: growth equal to 70% maps to not fulfilled; strictly smaller maps to fulfilled

COMPOUND	CLASS LABEL
Cc1nc([P+](c2ccccc2)(c2ccccc2)c2ccccc2)c(Sc2sc(-c3ccccc3)nc2[P+](c2ccccc2)(c2ccccc2)c2ccccc2)o1	fulfilled
CCN(CC)CCCCCCNc1ccnc2cc(Cl)ccc12	not fulfilled
Cc1ccc(S(=O)(=O)Nc2ccc(-c3cc(-c4cccc(F)c4)c(C#N)c(=O)[nH]3)cc2)cc1	not fulfilled
COc1ccc2c(c1)c(-c1nc(-c3c[nH]c4ncccc34)cs1)cn2CCN	fulfilled
COC(=O)c1cc(=O)nc(N/N=C/c2ccc(C)cc2)s1	not fulfilled
COc1cc(-c2cc3ncccc3c3nc(N)c4cccnc4c23)cc(OC)c1OC	fulfilled
CC1(C)CC[C@]2(C(=O)NCCNCCN)CC[C@]3(C)C(=CC[C@@H]4[C@@]5(C)CCC(=O)C(C)(C)[C@@H]5CC[C@]43C)[C@@H]2C1	fulfilled
COc1cc2nc(Cl)nc(Nc3cccc(C(=O)/C=C/c4ccccc4)c3)c2cc1OC	fulfilled
O=C1NC(c2ccc(Cl)c(Cl)c2)=C/C1=C\c1ccccc1	fulfilled
Cc1[c-]onc1C.Cc1[c-]onc1C.[Ag].[Ag].[NH-]S(=O)(=O)c1ccc(N=Nc2cc(N=Nc3ccc(S([NH-])(=O)=O)cc3)c3c(NC(=O)C(Cl)Cl)cccc3c2OC(=O)C(Cl)Cl)cc1	not fulfilled
CC(C)=CCC/C(C)=C/CC/C(C)=C/CC/C(C)=C/CSC[C@H](NC(=O)CCCCCN1CCN(C)CC1)C(=O)NC1CCCCC1	not fulfilled
COc1ccc(OCC(CO)N2CCN(c3ccccc3)CC2)cc1 (stereo unspecified)	not fulfilled
C[C@@H](Oc1ccc(C(=O)NS(=O)(=O)C(C)(C)C)cc1C(F)(F)F)c1ccc(Oc2ccccc2)cn1	fulfilled
CCCCCCCCNc1cccc2c1C(=O)c1ccccc1C2=O	not fulfilled
Cc1cc(Nc2ccc(F)cc2)nc(N2CCN(c3ccnc4cc(Cl)ccc34)CC2)n1	fulfilled
CC(=O)c1c(C)[nH]c(-c2nc3ccc(N4CCN(C)CC4)cc3[nH]2)c1-c1ccc(OCC2CCOCC2)cc1	fulfilled
